# growth inhibition per record follows
# procedure summary: NCI Yeast Anticancer Drug Screen. Data for the mec2-1 strain (AID 157)
# assay setup: S. cerevisiae mec2-1 strain, stronger effect = higher value; at 50.0 µM unless noted
Compounds without any hit were thinned out: in the full panel of roughly 79,000, 15% have a hit.
Output spec: scalar in %, unitless text.

CC1/C(=N\O)CC2C3(C)CCC2(C(C)C(=O)O)C(=O)C13 (configuration not stated)    9.1
O=C(O)c1ccc(NCC(O)COc2ccc([N+](=O)[O-])cc2)cc1 (configuration not stated)    4.85

q: For the compound O=C(O)CCC(=O)N1c2ccccc2CC1c1c[nH]c2ccccc12 (configuration not stated) , what growth inhibition is on record?
a: -13.9

q: For the compound CC1(C)Oc2nc[nH]c(=O)c2C1c1ccccc1 (configuration not stated) , what growth inhibition is on record?
a: -4.5

q: For the compound COC(=O)c1ccc2c(c1)CC1(C2)Cc2cc3c(cc2C1)CCC3 , what growth inhibition is on record?
a: -19.9

q: For the compound Cc1ccc(-c2cc(-c3ccccc3)c(C#N)c(=O)n2C2OC(CO)C(O)C(O)C2O)cc1 (configuration not stated) , what growth inhibition is on record?
a: -0.3

q: For the compound CC/C(CC(=O)CCC(=O)Nc1ccc(C)c(C)c1)=N\NC(=O)c1cc2ccccc2cc1O , what growth inhibition is on record?
a: 22.9

---

# procedure summary: NCI Yeast Anticancer Drug Screen. Data for the bub3 strain (AID 167)
# assay setup: S. cerevisiae bub3 mutant strain, stronger effect = higher value; at 50.0 µM unless noted
# Protocol: Growth inhibition of yeast strains with defined genetic alterations is measured as a screen for potential anti-cancer activity. Selected strains with alterations in DNA damage repair or cell cycle control were exposed to compounds and growth inhibition was measured relative to vehicle treated controls. The strain used in this assay is bub3
About 79,000 compounds went through this panel and 15% of them were active in at least one assay; those are over-represented in the sample as a whole.
# growth inhibition per record follows
Output spec: scalar in %, unitless text.

Examples from the recorded data:
CCOC(=O)C1=CC(C(=O)OCC)=C2C=CC=C3C=CC=C1N32    -18
CN(C)c1cccc2c(S(=O)(=O)NCCCNCCN)cccc12    -21.2
CC1=C2CC3=C(C)C(=O)O[C@H]3C[C@@H](C)[C@@H]2CC1    33.8
CC(C)(C)C(C(=O)O)C(=O)O    5.2
CCCCCCCCN(CCCCCCCC)CC(O)c1ccnc2c(Cl)cc(Cl)cc12 (stereo not drawn)    4.85
O=C(CSC(=S)N1CCOCC1)Nc1nc2c(s1)CCCC2    -1.65
C/C(CC(=O)Nc1cc(Cl)c(Cl)cc1Cl)=N\NS(=O)(=O)c1ccc(C)cc1    -1.2
CO[C@H]1C[C@H](n2cc(C)c(=O)[nH]c2=O)O[C@@H]1CO    -9.3
O=c1[nH]c2[nH]c(=S)[nH]c(=O)c2[nH]1    -3.4
C=C1CC2(OC1=O)c1ccccc1C=Cc1ccccc12    47.5

q: For the compound CCc1n[nH]c(=O)n1-n1c(C)ccc1C , what growth inhibition is on record?
a: -33

q: For the compound O=C(/C=C/c1ccc(O)c(O)c1)OC1CC(O)(C(=O)O)CC(O)C1O (stereo not drawn) (tested in a mixture with another compound) , what growth inhibition is on record?
a: 4

q: For the compound Nc1nnc2nc(CC(=O)c3cccc([N+](=O)[O-])c3)/c(=C/C(=O)c3cccc([N+](=O)[O-])c3)n12 , what growth inhibition is on record?
a: -4.8

---

# growth inhibition per record follows
# procedure summary: NCI Yeast Anticancer Drug Screen. Data for the rad50 strain (AID 155);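 further: 0% = growth of vehicle-only cultures of the same strain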
# assay setup: S. cerevisiae rad50 strain growth inhibition, stronger effect = higher value; at 50.0 µM unless noted
This is part of a sample that, as a whole, favours compounds with a hit. Of some 79,000 tested, about 15% had one in any assay.
Output spec: scalar in %, unitless text.

Examples from the recorded data:
COc1ccc(NC(=O)c2ccc(OC)cc2)cc1    0.7
CC(=O)c1cccc(NC(=O)CCCCCCCCC(=O)Nc2cccc(C(C)=O)c2)c1    -5.7
Nc1nc2cc(F)ccc2o1    1.05
CCOC(=O)c1[nH]c(-c2[nH]c(-c3[nH]c(-c4[nH]c(C(=O)OCC)c(C)c4C(=O)OCC)c(C(=O)OCC)c3C)c(C)c2C(=O)OCC)c(C(=O)OCC)c1C    -24.7
Cc1ccc(S(=O)(=O)NN=C2C3C=CC2CC3)cc1    11.8
CC(C)NC(=O)c1ccc(Cl)cc1Cl    26.9
CC(C)CCC(C)C1CCC2C3CCC4CC(=O)CC4(C)C3CCC12C (configuration not stated)    -13.5
COC1(OC)CC2C(=O)N(Cc3ccccc3)C1CC2S(=O)(=O)c1ccccc1 (configuration not stated)    6.7

q: For the compound Nc1ncnc2c1ccn2COCCO , what growth inhibition is on record?
a: -8.25

q: For the compound CCCC1([N+](=O)[O-])c2ccccc2-c2ccc([N+](=O)[O-])cc21 (configuration not stated) , what growth inhibition is on record?
a: 20.4

q: For the compound CC(=O)c1ccc2c(c1)NC(=O)CC(C)N2 (configuration not stated) , what growth inhibition is on record?
a: 0.65

q: For the compound Nc1nnc2nc(C3(c4nc5nnc(N)n5[nH]c4=O)CCCC3=O)c(=O)[nH]n12 , what growth inhibition is on record?
a: 13.4

q: For the compound COC(=O)c1cc(OCC#CC#CCOc2ccc(O)c(C(=O)OC)c2)ccc1O , what growth inhibition is on record?
a: 3

q: For the compound CCCCCCCCCCCCCCCCCCNC(=S)N/N=C/c1ccccc1[N+](=O)[O-] , what growth inhibition is on record?
a: -17.1

---

# growth inhibition per record follows
# procedure summary: NCI Yeast Anticancer Drug Screen. Data for the cln2 rad14 strain (AID 165);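 further: 0% = growth equal to vehicle treated cultures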
# assay setup: S. cerevisiae cln2 rad14 strain, stronger effect = higher value; at 50.0 µM unless noted
This is part of a sample that, as a whole, favours compounds with a hit. Of some 79,000 tested, about 15% had one in any assay.
Output spec: scalar in %, unitless text.

C#CCC(C(=O)OC)N(CC)CC (stereo unspecified)    0.55
COc1cc(/C=C/C(=O)O)ccc1O    -48
Cc1cc(C)nc(/N=C(/N)Nc2ccc(S(=O)(=O)NC(=O)Nc3ccccc3)cc2)n1    1.8
S=C(NCc1cccc(Cl)c1)Nc1ccccc1    -24.9

q: For the compound CCN(CCO)c1cccc(C)c1 , what growth inhibition is on record?
a: 1.6

q: For the compound CC(O)COC(C)C (stereo unspecified) , what growth inhibition is on record?
a: 2.85

---

# procedure summary: NCI Yeast Anticancer Drug Screen. Data for the sgs1 mgt1 strain (AID 161);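 further: 0% = growth of cultures given vehicle only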
# assay setup: S. cerevisiae sgs1 mgt1 strain, stronger effect = higher value; at 50.0 µM unless noted
Compounds without any hit were thinned out: in the full panel of roughly 79,000, 15% have a hit.
# growth inhibition per record follows
Output spec: scalar in %, unitless text.

Examples from the recorded data:
CN1CCCC1CCN (stereo unspecified)    -13.8
c1ccc(CNc2nnnc3ccccc23)cc1    -2.4
CC(C)=C1C2CCC1C(CO)C2CO (stereo unspecified)    -13.5

q: For the compound NC(=O)C(NCc1ccccc1)c1ccccc1 (stereo unspecified) , what growth inhibition is on record?
a: 1.6

q: For the compound c1cc(-c2cnc(-c3ccc4c(c3)CCCO4)o2)ccn1 , what growth inhibition is on record?
a: 31.6

q: For the compound CC1CC(NC(=S)N(C)C)CC(C)(C)C1 (stereo unspecified) , what growth inhibition is on record?
a: 18.8

---

# procedure summary: NCI Yeast Anticancer Drug Screen. Data for the sgs1 mgt1 strain (AID 161);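 further: 0% = growth of cultures given vehicle only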
# assay setup: S. cerevisiae sgs1 mgt1 strain, stronger effect = higher value; at 50.0 µM unless noted
Compounds without any hit were thinned out: in the full panel of roughly 79,000, 15% have a hit.
# growth inhibition per record follows
Output spec: scalar in %, unitless text.

Examples from the recorded data:
O=C(c1ccc([N+](=O)[O-])cc1)N(Cc1ccccc1)Cc1ccccc1 (tested in a mixture with another compound)    -12.7
Cc1[nH]n(C(N)=S)c(=O)c1N=Nc1ccc([N+](=O)[O-])cc1Cl    66.2
COC(=O)C1CCOC(C)N1C(=O)OC(C)(C)C (stereo not drawn)    6.4

q: For the compound NCCS(=O)(=O)O , what growth inhibition is on record?
a: 7.7

q: For the compound COC1/C=C/OC2(C)Oc3c(C)c(O)c4c(c3C2=O)C(N)=C(NC2CC2)C(=NC(=O)/C(C)=C\C=C\C(C)C(O)C(C)C(O)C(C)C(OC(C)=O)C1C)C4=O (stereo not drawn) , what growth inhibition is on record?
a: 41.2

q: For the compound CCCCCCCCCCCCCCCCCC(=O)N/N=C/c1cc(C(C)(C)C)c(O)c(C(C)(C)C)c1 , what growth inhibition is on record?
a: -14.1

Source listed as PubChem BioAssay (NCI).
